Origin of values: PubChem BioAssay AID504332

- SYSTEM TESTED: Histone-lysine N-methyltransferase EHMT2 (Homo sapiens) (UniProt Q96KQ7)
- Sequence (Q96KQ7 913-1193 limits assumed): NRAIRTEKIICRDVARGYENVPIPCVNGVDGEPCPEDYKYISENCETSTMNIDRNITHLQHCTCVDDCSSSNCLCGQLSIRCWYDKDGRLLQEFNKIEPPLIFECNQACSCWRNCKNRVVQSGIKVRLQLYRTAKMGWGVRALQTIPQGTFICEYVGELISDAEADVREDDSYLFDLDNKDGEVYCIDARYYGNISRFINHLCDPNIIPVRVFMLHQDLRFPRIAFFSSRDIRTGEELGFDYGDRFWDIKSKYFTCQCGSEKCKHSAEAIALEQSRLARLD
- EXPERIMENTAL PROTOCOL: qHTS Assay for Inhibitors of Histone Lysine Methyltransferase G9a; also: nearly all actives have a fitted effect of over 75% in size; also: potency is read from the fitted curve at half-maximal effect
- CONDITIONS: G9a H3K9 monomethylation, AlphaScreen, 2 h; series mostly up to 59 µM
Hit rate of the full screen: of about 350,000 compounds, about 31,000 (8.9%) were called active. About 15% were inconclusive and are not listed. This excerpt belongs to a sample that is enriched for actives.
QUANTITY NAME: Potency

# annotated cases, reported Potency shown
Noted for COc1ccc(Cl)cc1NC(=O)CSc1nc(-c2cccs2)cc(C(F)(F)F)n1 : its Potency reads inactive

Noted for Cc1ccc(-n2c(SCC(=O)N3CCC(C(=O)O)CC3)nc3ccccc3c2=O)cc1C : its Potency reads inactive

Noted for N#Cc1ccc(C(c2nnnn2CCc2ccccc2)N2CCCCCC2)cc1 (stereo not given) : its Potency reads inactive

Noted for COc1ccc(CCn2nnnc2C(c2ccccc2)N2CCN(C)CC2)cc1OC (stereo not given) : its Potency reads 70.8 µM (active)

Noted for CCOC(=O)CCCNC(=O)COC(=O)/C=C/c1ccc2c(c1)OCO2 : its Potency reads inactive

---
Noted for CCC(=O)N1CCc2cc(Br)cc(S(=O)(=O)CCC(=O)NCCc3ccc(OC)c(OC)c3)c21 : its Potency reads inactive

Noted for CCc1c(C)nc(N)n2c(SCC(=O)NC3CCCCC3)nnc12 : its Potency reads inactive

Noted for CSc1ccccc1NC(=O)CCS(=O)(=O)c1nc(-c2cccs2)cc(C(F)(F)F)n1 : its Potency reads 3.16 µM (active)

Noted for O=C(Cn1cc(SCc2cccc(Cl)c2)c2ccccc21)N1CCCCC1 : its Potency reads inactive

Noted for CCc1c(C)sc(NC(=O)/C=C/c2ccc3c(c2)OCO3)c1C(=O)OC : its Potency reads inactive
